# System: NAMALWA (Burkitt's Lymphoma)
# Measurement Description: combination Emax (second highest fraction inhibited in the dose matrix, 72 h); higher = more inhibition; extreme values may be limits of the assay
Endpoint: combination Emax

Molecule: Cc1cc2ncnn2cc1Nc1ncc2c(n1)n(C1CCOCC1)c(=O)n2C [AZD7648] + O=C(c1cc(Cc2n[nH]c(=O)c3ccccc23)ccc1F)N1CCN(C(=O)C2CC2)CC1 [Olaparib] (first compound max 10 µM, 7x7, partner max 10 µM)
combination Emax: 0.578

Hey, NAMALWA (Burkitt's Lymphoma) data for Cn1cnc2c(F)c(Nc3ccc(Br)cc3Cl)c(C(=O)NOCCO)cc21 [Selumetinib] + CC(C)n1c(=O)n(C)c2cnc3cc(F)c(-c4ccc(OCCCN5CCCCC5)nc4)cc3c21 [AZD1390] (first compound max 10 µM, 7x7, partner max 0.3 µM) : combination Emax came out at 0.136

The measured combination Emax that CN(C)CCCOc1ccc(-c2ccc3ncc4c(c3c2)n(C2CCOCC2)c(=O)n4C)cn1 [AZD0156] + C=CCn1c(=O)c2cnc(Nc3ccc(N4CCN(C)CC4)cc3)nc2n1-c1cccc(C(C)(C)O)n1 [AZD1775] (first compound max 1 µM, partner max 1 µM) showed for NAMALWA (Burkitt's Lymphoma) is 0.974

GET /values?item= COc1nnc2ccc(N3CCC(c4ccc(OCCN5CCN(C)C(=O)[C@H]5C)cc4)CC3)nn12 [AZD5153] + CC1(C)CCC(CN2CCN(c3ccc(C(=O)NS(=O)(=O)c4ccc(NCC5CCOCC5)c([N+](=O)[O-])c4)c(Oc4cnc5[nH]ccc5c4)c3)CC2)=C(c2ccc(Cl)cc2)C1 [Venetoclax] (first compound max 1 µM, 7x7, partner max 1 µM) &system= NAMALWA (Burkitt's Lymphoma) returns combination Emax: 0.761

Per the reported NAMALWA (Burkitt's Lymphoma) data, C=CCn1c(=O)c2cnc(Nc3ccc(N4CCN(C)CC4)cc3)nc2n1-c1cccc(C(C)(C)O)n1 [AZD1775] + CCc1c2c(nc3ccc(O)cc13)-c1cc3c(c(=O)n1C2)COC(=O)[C@]3(O)CC [SN-38] (first compound max 1 µM, partner max 0.3 µM) has combination Emax of 1

Recorded combination Emax for C[C@@H]1COCCN1c1cc(C2([S@](C)(=N)=O)CC2)nc(-c2ccnc3[nH]ccc23)n1 [AZD6738] + Nc1ccn([C@@H]2O[C@H](CO)[C@@H](O)C2(F)F)c(=O)n1 [Gemcitabine] (first compound max 10 µM, 7x7, partner max 0.3 µM) on NAMALWA (Burkitt's Lymphoma) was 1

The molecule COc1nnc2ccc(N3CCC(c4ccc(OCCN5CCN(C)C(=O)[C@H]5C)cc4)CC3)nn12 [AZD5153] + Cc1c2c(nn1C)CSCc1cc(n(C)n1)CSc1cc(c3ccccc3c1)OCCCc1c(C(=O)O)n(C)c3c-2c(Cl)ccc13 [AZD5991] (first compound max 1 µM, 7x7, partner max 1 µM) on NAMALWA (Burkitt's Lymphoma): combination Emax was 0.966

Field combination Emax (NAMALWA (Burkitt's Lymphoma)), entry C[C@@H](c1ccc2nccn2c1)n1nnc2ncc(-c3cnn(C)c3)nc21 [Savolitinib] + CC1(C)CCC(CN2CCN(c3ccc(C(=O)NS(=O)(=O)c4ccc(NCC5CCOCC5)c([N+](=O)[O-])c4)c(Oc4cnc5[nH]ccc5c4)c3)CC2)=C(c2ccc(Cl)cc2)C1 [Venetoclax] (first compound max 1 µM, 7x7, partner max 1 µM) : 0.213

# lookup: Cc1c2c(nn1C)CSCc1cc(n(C)n1)CSc1cc(c3ccccc3c1)OCCCc1c(C(=O)O)n(C)c3c-2c(Cl)ccc13 [AZD5991] + Nc1ccn([C@@H]2O[C@H](CO)[C@@H](O)C2(F)F)c(=O)n1 [Gemcitabine] (first compound max 1 µM, 7x7, partner max 0.3 µM) on NAMALWA (Burkitt's Lymphoma), combination Emax = 1

The value of combination Emax recorded for COc1cccc2c1C(=O)c1c(O)c3c(c(O)c1C2=O)C[C@@](O)(C(=O)CO)C[C@@H]3O[C@H]1C[C@H](N)[C@H](O)[C@H](C)O1 [Doxorubicin] + Cc1cc2ncnn2cc1Nc1ncc2c(n1)n(C1CCOCC1)c(=O)n2C [AZD7648] (first compound max 1 µM, 7x7, partner max 10 µM) when tested on NAMALWA (Burkitt's Lymphoma) reads 0.976

Observed combination Emax on NAMALWA (Burkitt's Lymphoma), entry Cc1c2c(nn1C)CSCc1cc(n(C)n1)CSc1cc(c3ccccc3c1)OCCCc1c(C(=O)O)n(C)c3c-2c(Cl)ccc13 [AZD5991] + C[C@@H](Nc1cc(F)cc(F)c1)c1cc(C(=O)N(C)C)cc2c(=O)cc(N3CCOCC3)oc12 [AZD8186] (first compound max 1 µM, 7x7, partner max 3 µM) , equals 0.986

Record for Cc1nc(-c2cn3c(n2)-c2ccc(-c4cnn(C(C)(C)C(N)=O)c4)cc2OCC3)n(C(C)C)n1 [Taselisib] + O=C(Nc1ccc2[nH]nc(-c3ccncc3)c2c1)[C@@H]1CCN(CC(=O)N2CCN(c3ccc(-c4ncccn4)cc3)CC2)C1 [SCH772984] (first compound max 10 µM, 7x7, partner max 5 µM) under target or system NAMALWA (Burkitt's Lymphoma): combination Emax reported as 0.65

Reported combination Emax (NAMALWA (Burkitt's Lymphoma)) for entry NC1(C(=O)N[C@@H](CCO)c2ccc(Cl)cc2)CCN(c2ncnc3[nH]ccc23)CC1 [Capivasertib] + COc1nnc2ccc(N3CCC(c4ccc(OCCN5CCN(C)C(=O)[C@H]5C)cc4)CC3)nn12 [AZD5153] (first compound max 10 µM, 7x7, partner max 1 µM) is 0.961
